# Experimental Protocol: Inhibition of Wnt/beta-catenin D145A/E155A mutant transactivation signalling in human HEK293 cells transfected with TOPFlash reporter gene incubated for 24 hrs by TOPFlash luciferase assay
# Type: cell-based
# Stated Conditions: HEK293, 24 h

Molecule	Value Unit	IC50
CC(C)(C)C1CCC(c2cc(C(=O)N3CCC(Oc4cc(N5CCNCC5)ccc4C#N)CC3)ccc2O[C@H]2CCNC2)CC1.Cl.Cl (mixture of isomers; cis)	µM	24

---

# Target Or System: beta-catenin-B-cell lymphoma 9 protein complex (Homo sapiens)
# Sequence (P35222 whole entry): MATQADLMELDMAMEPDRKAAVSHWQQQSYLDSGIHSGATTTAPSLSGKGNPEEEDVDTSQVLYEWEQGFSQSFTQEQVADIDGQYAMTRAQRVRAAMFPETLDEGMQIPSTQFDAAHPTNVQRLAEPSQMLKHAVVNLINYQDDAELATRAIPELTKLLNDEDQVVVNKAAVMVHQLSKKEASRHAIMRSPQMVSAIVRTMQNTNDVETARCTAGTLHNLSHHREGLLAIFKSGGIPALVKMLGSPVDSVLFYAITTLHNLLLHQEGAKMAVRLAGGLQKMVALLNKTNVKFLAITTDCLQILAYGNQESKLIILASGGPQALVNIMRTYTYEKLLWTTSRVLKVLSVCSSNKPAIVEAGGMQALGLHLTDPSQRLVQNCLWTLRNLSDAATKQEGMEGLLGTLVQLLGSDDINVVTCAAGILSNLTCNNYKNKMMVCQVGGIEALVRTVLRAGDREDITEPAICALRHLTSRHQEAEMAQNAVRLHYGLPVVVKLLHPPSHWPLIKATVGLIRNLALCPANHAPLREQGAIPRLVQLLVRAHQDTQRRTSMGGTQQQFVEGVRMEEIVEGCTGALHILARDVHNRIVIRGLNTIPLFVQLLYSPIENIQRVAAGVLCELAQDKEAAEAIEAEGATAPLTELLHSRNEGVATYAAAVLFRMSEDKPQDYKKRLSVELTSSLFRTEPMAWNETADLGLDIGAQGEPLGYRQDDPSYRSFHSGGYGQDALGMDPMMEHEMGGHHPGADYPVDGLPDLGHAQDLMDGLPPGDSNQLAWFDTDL
# Sequence (O00512 whole entry): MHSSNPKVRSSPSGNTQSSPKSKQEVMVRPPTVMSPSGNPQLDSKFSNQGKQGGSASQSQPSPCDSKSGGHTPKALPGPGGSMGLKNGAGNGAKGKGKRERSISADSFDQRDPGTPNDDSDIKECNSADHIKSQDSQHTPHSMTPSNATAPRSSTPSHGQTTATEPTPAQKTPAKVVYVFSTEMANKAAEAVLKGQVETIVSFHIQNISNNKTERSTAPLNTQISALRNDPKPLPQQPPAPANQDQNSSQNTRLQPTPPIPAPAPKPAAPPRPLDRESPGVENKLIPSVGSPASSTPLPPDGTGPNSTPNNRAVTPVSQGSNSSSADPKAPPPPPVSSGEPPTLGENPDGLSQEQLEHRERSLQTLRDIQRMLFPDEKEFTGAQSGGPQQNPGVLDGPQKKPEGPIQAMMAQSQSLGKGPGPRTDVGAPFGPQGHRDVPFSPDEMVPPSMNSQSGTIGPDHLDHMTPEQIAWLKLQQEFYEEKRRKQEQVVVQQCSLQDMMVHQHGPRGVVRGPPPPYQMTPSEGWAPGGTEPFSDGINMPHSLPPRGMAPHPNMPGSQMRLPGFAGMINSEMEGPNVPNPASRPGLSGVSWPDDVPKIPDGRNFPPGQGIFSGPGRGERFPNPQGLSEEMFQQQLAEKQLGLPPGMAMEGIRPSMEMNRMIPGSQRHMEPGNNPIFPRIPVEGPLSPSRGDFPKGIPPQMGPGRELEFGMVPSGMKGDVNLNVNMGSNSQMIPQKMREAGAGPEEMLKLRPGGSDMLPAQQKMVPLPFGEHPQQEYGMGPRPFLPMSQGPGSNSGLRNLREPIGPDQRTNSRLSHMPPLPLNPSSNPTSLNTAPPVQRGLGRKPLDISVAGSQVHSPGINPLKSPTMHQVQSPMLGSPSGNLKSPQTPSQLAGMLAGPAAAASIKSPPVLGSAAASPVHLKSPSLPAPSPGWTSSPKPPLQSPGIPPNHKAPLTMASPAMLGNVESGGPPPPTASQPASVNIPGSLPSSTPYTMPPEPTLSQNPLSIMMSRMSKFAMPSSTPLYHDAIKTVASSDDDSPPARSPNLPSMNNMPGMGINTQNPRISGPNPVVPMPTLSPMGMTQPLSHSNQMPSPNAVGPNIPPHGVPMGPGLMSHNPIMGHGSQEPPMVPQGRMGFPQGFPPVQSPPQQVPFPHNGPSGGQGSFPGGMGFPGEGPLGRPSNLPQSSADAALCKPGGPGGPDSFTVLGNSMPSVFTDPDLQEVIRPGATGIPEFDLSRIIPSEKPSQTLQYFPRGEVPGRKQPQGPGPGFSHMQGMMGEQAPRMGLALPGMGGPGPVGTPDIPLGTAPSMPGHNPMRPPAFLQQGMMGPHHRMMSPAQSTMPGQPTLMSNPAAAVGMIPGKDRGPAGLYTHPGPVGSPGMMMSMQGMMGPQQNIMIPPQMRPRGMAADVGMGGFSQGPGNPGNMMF
# Experimental Protocol: Inhibition of full length beta-catenin (1 to 781 residues) (unknown origin) expressed in Escherichia coli BL21 (DE3)/N-terminal biotinylated human BCL9 HD2 (350 to 375 residues) protein-protein interaction incubated for 1 hr by Alphascreen assay
pIC50: −log10 of the molar value.
Is pIC50 at least 5? Then TRUE. If not, FALSE.

Molecule	Answer Label
CN(C)C(=O)c1ccc(N2CCNCC2)cc1OC1CCN(C(=O)c2ccc(O[C@H]3CCNC3)c(C3CCC(C(C)(C)C)CC3)c2)CC1 (mixture of isomers)	FALSE
CC(C)C(=O)N1CCC(c2cc(C(=O)N3CCC(Oc4cc(F)cc(N5CCNCC5)c4)CC3)ccc2O[C@H]2CCNC2)CC1	FALSE
O=C(c1ccc(OC2CCNCC2)c(C2CCCCC2)c1)N1CCC(Oc2cc(F)cc(N3CCNCC3)c2)CC1	FALSE
CC(C)(C)C1CCC(c2cc(C(=O)N3CCC(Oc4cc(N5CCNCC5)ccc4C(=O)O)CC3)ccc2O[C@H]2CCNC2)CC1 (stereo not given in full)	FALSE
CC(C)(C)C1CCC(c2cc(C(=O)N3CCC(Oc4cc(N5CCNCC5)ccc4F)CC3)ccc2O[C@H]2CCNC2)CC1 (mixture of isomers)	TRUE
NCCCC(=O)Nc1cc(F)cc(OC2CCN(C(=O)c3ccc(O[C@H]4CCNC4)c(C4CCCCC4)c3)CC2)c1	FALSE
CC(O)C(=O)N1CCC(c2cc(C(=O)N3CCC(Oc4cc(F)cc(N5CCNCC5)c4)CC3)ccc2O[C@H]2CCNC2)CC1 (stereo not given in full)	FALSE
O=C(c1ccc(O[C@H]2CCNC2)c(-c2ccccc2)c1)N1CCC(Oc2cc(F)cc(N3CCNCC3)c2)CC1	FALSE
CC(C)(C)C1CCC(c2cc(C(=O)N3CCC(Oc4cc(N5CCNCC5)cc(F)c4F)CC3)ccc2O[C@H]2CCNC2)CC1 (mixture of isomers)	TRUE
O=C(c1ccc(O[C@H]2CCNC2)c(C2CCCCC2)c1)N1CCC(Oc2cc(F)cc(N3C[C@H]4CNC[C@H]4C3)c2)CC1	FALSE
O=C(c1ccc(O[C@H]2CCNC2)c(-c2ccc3ccsc3c2)c1)N1CCC(Oc2cc(F)cc(N3CCNCC3)c2)CC1	TRUE
CC(C)(C)C1CCC(c2cc(C(=O)N3CCC(Oc4cccc(N5CCNCC5)c4)CC3)ccc2O[C@H]2CCNC2)CC1 (mixture of isomers)	FALSE
NCc1cn(Cc2cc(F)cc(OC3CCN(C(=O)c4ccc(O[C@H]5CCNC5)c(C5CCCCC5)c4)CC3)c2)nn1	FALSE

---

# Target Or System: beta-catenin-B-cell lymphoma 9 protein complex (Homo sapiens)
# Experimental Protocol: Inhibition of full length beta-catenin (1 to 781 residues) (unknown origin) expressed in Escherichia coli BL21 (DE3)/N-terminal biotinylated human BCL9 HD2 (350 to 375 residues) protein-protein interaction assessed as inhibition constant incubated for 1 hr by Alphascreen assay
pKi: −log10 of the molar value.
Is pKi at least 5? Then 1. If not, 0.

Compound	Answer Label
CC(C)(C)C(=O)N1CCC(c2cc(C(=O)N3CCC(Oc4cc(F)cc(N5CCNCC5)c4)CC3)ccc2O[C@H]2CCNC2)CC1	0
CC(C)(CN)C(=O)NCc1cc(F)cc(OC2CCN(C(=O)c3ccc(O[C@H]4CCNC4)c(C4CCCCC4)c3)CC2)c1	0
O=C(c1ccc(O[C@H]2CCNC2)c(C2CCCCC2)c1)N1CCC(Oc2cc(F)cc(N3CCC4(CC3)CNC4)c2)CC1	0
COC(=O)c1ccc(N2CCNCC2)cc1OC1CCN(C(=O)c2ccc(O[C@H]3CCNC3)c(C3CCC(C(C)(C)C)CC3)c2)CC1 (mixture of isomers)	0
O=C(c1ccc(O[C@H]2CCNC2)c(-c2ccccc2)c1)N1CCC(Oc2cc(F)cc(N3CCNCC3)c2)CC1	0
O=C(c1ccc(O[C@H]2CCNC2)c(-c2ccc3nc[nH]c3c2)c1)N1CCC(Oc2cc(F)cc(N3CCNCC3)c2)CC1	0
NCCC(=O)Nc1cc(F)cc(OC2CCN(C(=O)c3ccc(O[C@H]4CCNC4)c(C4CCCCC4)c3)CC2)c1	0
O=C(c1ccc(OC2CCNCC2)c(C2CCCCC2)c1)N1CCC(Oc2cc(F)cc(N3CCNCC3)c2)CC1	0
O=C(c1ccc(O[C@H]2CCNC2)c(-c2ccc3ccsc3c2)c1)N1CCC(Oc2cc(F)cc(N3CCNCC3)c2)CC1	1
CC(C)(C)C1CCC(c2cc(C(=O)N3CCC(Oc4cccc(N5CCNCC5)c4)CC3)ccc2O[C@H]2CCNC2)CC1 (mixture of isomers)	0
O=C(c1ccc(O[C@@H]2CCNC2)c(C2CCCCC2)c1)N1CCC(Oc2cc(F)cc(N3CCNCC3)c2)CC1	0
NCCCC(=O)Nc1cc(F)cc(OC2CCN(C(=O)c3ccc(O[C@H]4CCNC4)c(C4CCCCC4)c3)CC2)c1	0
O=C(c1ccc(O[C@H]2CCNC2)c(-c2ccc3ccccc3c2)c1)N1CCC(Oc2cc(F)cc(N3CCNCC3)c2)CC1	1
NCc1cn(Cc2cc(F)cc(OC3CCN(C(=O)c4ccc(O[C@H]5CCNC5)c(C5CCCCC5)c4)CC3)c2)nn1	0
CC(C)(C)C1CCC(c2cc(C(=O)N3CCC(Oc4cc(N5CCNCC5)ccc4Cl)CC3)ccc2O[C@H]2CCNC2)CC1 (mixture of isomers)	1
CC(C)(C)C1CCC(c2cc(C(=O)N3CCC(Oc4cc(N5CCNCC5)ccc4F)CC3)ccc2O[C@H]2CCNC2)CC1 (mixture of isomers)	1
CC(C)C(=O)N1CCC(c2cc(C(=O)N3CCC(Oc4cc(F)cc(N5CCNCC5)c4)CC3)ccc2O[C@H]2CCNC2)CC1	0
NCCC(=O)NCc1cc(F)cc(OC2CCN(C(=O)c3ccc(O[C@H]4CCNC4)c(C4CCCCC4)c3)CC2)c1	0
O=C(c1ccc(O[C@H]2CCNC2)c(C2CCOCC2)c1)N1CCC(Oc2cc(F)cc(N3CCNCC3)c2)CC1	0
CC(C)(C)C1CCC(c2cc(C(=O)N3CCC(Oc4cc(Cl)cc(N5CCNCC5)c4)CC3)ccc2O[C@H]2CCNC2)CC1 (mixture of isomers)	1
CC(C)(C)C1CCC(c2cc(C(=O)N3CCC(Oc4cc(N5CCNCC5)ccc4C(=O)O)CC3)ccc2O[C@H]2CCNC2)CC1 (some centres undefined)	0
CN(C)C(=O)c1ccc(N2CCNCC2)cc1OC1CCN(C(=O)c2ccc(O[C@H]3CCNC3)c(C3CCC(C(C)(C)C)CC3)c2)CC1 (mixture of isomers)	0
CC(O)C(=O)N1CCC(c2cc(C(=O)N3CCC(Oc4cc(F)cc(N5CCNCC5)c4)CC3)ccc2O[C@H]2CCNC2)CC1 (some centres undefined)	0
CC(C)(C)C1CCC(c2cc(C(=O)N3CCC(Oc4cc(N5CCNCC5)cc(F)c4F)CC3)ccc2O[C@H]2CCNC2)CC1 (mixture of isomers)	1
O=C(c1ccc(O[C@H]2CCNC2)c(C2CCCCC2)c1)N1CCC(Oc2cc(F)cc(N3CCNCC3)c2)CC1	0
CC(C)(C)C1CCC(c2cc(C(=O)N3CCC(Oc4cc(N5CCNCC5)ccc4C#N)CC3)ccc2O[C@H]2CCNC2)CC1 (mixture of isomers; 44)	1
O=C(c1ccc(O[C@H]2CCNC2)c(C2CCCCC2)c1)N1CCC(Oc2cc(F)cc(N3CC4(CCNCC4)C3)c2)CC1	0
CC(C)(C)C1CCC(c2cc(C(=O)N3CCC(Oc4cc(N5CCNCC5)ccc4C(N)=O)CC3)ccc2O[C@H]2CCNC2)CC1 (mixture of isomers)	0
